Would you mind telling me the reported growth inhibition of each entry?
assay-name: NCI Yeast Anticancer Drug Screen. Data for the mec2-1 strain (AID 157)
test-context: S. cerevisiae mec2-1 strain, at 11.0 µM, stronger effect = higher value
This is part of a sample that, as a whole, favours compounds with a hit. Of some 79,000 tested, about 15% had one in any assay.
Numbers only, in %.

>>> readout_number("O=C1Nc2ccccc2/C1=C/COc1ccccc1")
23
>>> readout_number("O=C1C=CC(=O)c2c(O)c(Nc3ccc(OC(F)(F)F)cc3)c(Cl)c(O)c21")
8

Batch request: growth inhibition for each of the following compounds.
1. O=C1Nc2ccc(Cl)c(I)c2C1=O
2. CN(C)Cc1cc(N=Nc2ccc(Cl)cc2)cc(CN(C)C)c1O
3. O=[N+]([O-])c1cc(CCl)ccc1CCl
4. BrCC[P+](c1ccccc1)(c1ccccc1)c1ccccc1
5. COc1cc(C2SCC(=O)N2c2nnc(C(F)(F)F)s2)cc(OC)c1OC (configuration not stated)
6. Cc1ccc(-c2ccc(Nc3c4ccccc4nc4ccccc34)cc2)cn1

Response line:
1: 16; 2: 16; 3: 37; 4: 14; 5: 4; 6: 11

Batch request: growth inhibition for each of the following compounds.
1. Nc1ccn(C2OC(CO)C3[O][Sn]([c]4ccccc4)([c]4ccccc4)[O]C32)c(=O)n1 (configuration not stated)
2. COC1=CC(=O)C(C2(OC(C)C)OC(=O)C(Cl)=C2Cl)=CC1=O (configuration not stated)

Response line:
4
100

Batch request: growth inhibition for each of the following compounds.
1. Cn1c(=O)c2ccccc2c2ccccc21
2. O=[N+]([O-])c1cccc2nc3ccccc3c(NCCCN3CCOCC3)c12

Response line:
1. 11
2. 98

Hello, the source for this data is PubChem BioAssay (NCI), in case you need it.
